Test details: Pharmacokinetics in chimpanzee, IV dose
Settings: female, in vivo; chimpanzees, 1-mg/kg IV 60-minute infusion, mean of 2 chimps; read-out: Volume of distribution
*1 amine or outer side, *2 acyl side, *3 side chain or, on linkers, in order; H or OH if unused. Where a SMILES comes first, the peptide text is derived from it. Bridges are numbered along the chain shown (N, C = ends). [ ]: non-standard residue; d: D form. The star is where a group is joined. pTerphenylCO(4''-OnC5H11) = CCCCCOc1ccc(-c2ccc(-c3ccc(C(=O)*)cc3)cc2)cc1; Orn(4R-OH,5R-OH) = O=C([C@H](C[C@@H](O)[C@@H](O)N[*:3])N[*:1])[*:2]; hTyr(3S-OH,4S-OH) = N[C@H](C(=O)O)[C@H](O)[C@@H](O)c1ccc(O)cc1; Pro(3S-OH,4S-Me) = C[C@H]1CN[C@H](C(=O)O)[C@H]1O; Hyp = O=C(O)[C@@H]1C[C@@H](O)CN1
Measurement type: Vd

INSERT INTO assay_data (compound, result) VALUES
  ('CCCCCOc1ccc(-c2ccc(-c3ccc(C(=O)N[C@H]4C[C@@H](O)[C@@H](O)NC(=O)[C@@H]5[C@@H](O)[C@@H](C)CN5C(=O)[C@H]([C@@H](C)O)NC(=O)[C@H]([C@H](O)[C@@H](O)c5ccc(O)cc5)NC(=O)[C@@H]5C[C@@H](O)CN5C(=O)[C@H]([C@@H](C)O)NC4=O)cc3)cc2)cc1 [Anidulafungin, anidulafungin, reference compound] ({pTerphenylCO(4''''-OnC5H11)}-[Orn(4R-OH,5R-OH)]T[Hyp][hTyr(3S-OH,4S-OH)]T[Pro(3S-OH,4S-Me)]; lactam 1-C)', '1.1 L/kg');

----------
Test details: Solubility in aqueous media of varying pH
Type: physicochemical
Settings: aqueous buffer; Tris buffer (0.01M, pH 8.5), ambient temperature; compound 22 as acetate salt, salt free equivalent; read-out: Solubility
*1 amine or outer side, *2 acyl side, *3 side chain or, on linkers, in order; H or OH if unused. Where a SMILES comes first, the peptide text is derived from it. Bridges are numbered along the chain shown (N, C = ends). [ ]: non-standard residue; d: D form. The star is where a group is joined. pTerphenylCO(4''-OnC5H11) = CCCCCOc1ccc(-c2ccc(-c3ccc(C(=O)*)cc3)cc2)cc1; Orn(4R-OH,5R-OH) = O=C([C@H](C[C@@H](O)[C@@H](O)N[*:3])N[*:1])[*:2]; hTyr(3S-OH,4S-OH) = N[C@H](C(=O)O)[C@H](O)[C@@H](O)c1ccc(O)cc1; Pro(3S-OH,4S-Me) = C[C@H]1CN[C@H](C(=O)O)[C@H]1O; Hyp = O=C(O)[C@@H]1C[C@@H](O)CN1
Measurement type: solubility

INSERT INTO assay_data (compound, result) VALUES
  ('CCCCCOc1ccc(-c2ccc(-c3ccc(C(=O)N[C@H]4C[C@@H](O)[C@@H](O)NC(=O)[C@@H]5[C@@H](O)[C@@H](C)CN5C(=O)[C@H]([C@@H](C)O)NC(=O)[C@H]([C@H](O)[C@@H](O)c5ccc(O)cc5)NC(=O)[C@@H]5C[C@@H](O)CN5C(=O)[C@H]([C@@H](C)O)NC4=O)cc3)cc2)cc1 [Anidulafungin, anidulafungin, reference compound] ({pTerphenylCO(4''''-OnC5H11)}-[Orn(4R-OH,5R-OH)]T[Hyp][hTyr(3S-OH,4S-OH)]T[Pro(3S-OH,4S-Me)]; lactam 1-C)', '< 10 µg/mL');

The measured values listed here are drawn from patent US11654196B2.
